- MEASURED_TARGET: Human immunodeficiency virus type 1 protease (Human immunodeficiency virus 1, UniProt Q72874)
Below: a set of entries, each annotated with reported pEC50.
pEC50 is a log-scale quantity: -log10 of the concentration expressed in molar.

Q: Tell me the measured pEC50 of CC(C)[C@H](NC(=O)N(C)Cc1ccccn1)C(=O)N[C@@H](Cc1ccccc1)[C@H](O)[C@@H](O)[C@H](Cc1ccccc1)NC(=O)[C@@H](NC(=O)N(C)Cc1ccccn1)C(C)C , please.
A: 6.55

Q: Tell me the measured pEC50 of CC(C)[C@H](NC(=O)OCc1ccccn1)C(=O)N[C@@H](Cc1ccccc1)[C@H](O)[C@@H](O)[C@H](Cc1ccccc1)NC(=O)[C@@H](NC(=O)OCc1ccccn1)C(C)C , please.
A: 6.92

Q: Tell me the measured pEC50 of CC(C)[C@H](NC(=O)OCc1ccccn1)C(=O)N[C@@H](Cc1ccccc1)[C@@H](O)[C@H](O)[C@H](Cc1ccccc1)NC(=O)[C@@H](NC(=O)OCc1ccccn1)C(C)C , please.
A: 7.30

---

- MEASURED_TARGET: Human immunodeficiency virus type 1 protease (Human immunodeficiency virus 1)
Below: a set of entries, each annotated with reported Thymidine reversal.
# respond with the number and nothing more

Before answering, review these 3 worked examples.
{"INPUT_SMILES": "CN(Cc1ccc(S(=O)(=O)c2ccccc2)cc1)c1ccc2c3c(cccc13)C(N)=N2", "Thymidine reversal": 2.3}
{"INPUT_SMILES": "CN(Cc1ccc(S(=O)(=O)N2CCOCC2)cc1)c1ccc2c3c(cccc13)C(=N)N2", "Thymidine reversal": 8.5}
{"INPUT_SMILES": "CNC1=Nc2ccc(N(C)Cc3ccc(S(=O)(=O)N4CCOCC4)cc3)c3c(C)ccc1c23", "Thymidine reversal": 12.7}

Q: API: value(readout=Thymidine reversal, system=Human immunodeficiency virus type 1 protease (Human immunodeficiency virus 1)) for record CCN(Cc1ccc(S(=O)(=O)N2CCNCC2)cc1)c1ccc2c3c(cccc13)C(=O)N2
A: 1.1

---

- MEASURED_TARGET: UniProt:Q72874
Decision: Ki beneath 0.2 nM gives t; Ki meeting or exceeding 0.2 nM gives f.

{"INPUT_SMILES": "CC(C)[C@H](NC(=O)N(C)Cc1ccccn1)C(=O)N[C@@H](Cc1ccccc1)[C@H](O)[C@H](O)[C@H](Cc1ccccc1)NC(=O)[C@@H](NC(=O)N(C)Cc1ccccn1)C(C)C", "GROUP": "t"}
{"INPUT_SMILES": "CC(C)[C@H](NC(=O)OCc1ccccn1)C(=O)N[C@@H](Cc1ccccc1)[C@@H](O)[C@H](O)[C@H](Cc1ccccc1)NC(=O)[C@@H](NC(=O)OCc1ccccn1)C(C)C", "GROUP": "t"}
{"INPUT_SMILES": "CC(C)[C@H](NC(=O)OCc1ccccn1)C(=O)N[C@@H](Cc1ccccc1)[C@H](O)[C@H](O)[C@H](Cc1ccccc1)NC(=O)[C@@H](NC(=O)OCc1ccccn1)C(C)C", "GROUP": "t"}

Q: is_below(Ki, 0.2 nM) for CC(C)[C@H](NC(=O)N(C)Cc1ccccn1)C(=O)N[C@@H](Cc1ccccc1)[C@@H](O)[C@H](O)[C@H](Cc1ccccc1)NC(=O)[C@@H](NC(=O)N(C)Cc1ccccn1)C(C)C ?
A: t

Q: is_below(Ki, 0.2 nM) for CC(C)[C@H](NC(=O)OCc1ccccn1)C(=O)N[C@@H](Cc1ccccc1)[C@H](O)[C@@H](O)[C@H](Cc1ccccc1)NC(=O)[C@@H](NC(=O)OCc1ccccn1)C(C)C ?
A: t

Q: is_below(Ki, 0.2 nM) for CC(C)[C@H](NC(=O)N(C)Cc1ccccn1)C(=O)N[C@@H](Cc1ccccc1)[C@H](O)[C@@H](O)[C@H](Cc1ccccc1)NC(=O)[C@@H](NC(=O)N(C)Cc1ccccn1)C(C)C ?
A: f

---

- MEASURED_TARGET: Thymidylate synthase (Homo sapiens, UniProt P04818)
- Sequence (P04818 whole entry): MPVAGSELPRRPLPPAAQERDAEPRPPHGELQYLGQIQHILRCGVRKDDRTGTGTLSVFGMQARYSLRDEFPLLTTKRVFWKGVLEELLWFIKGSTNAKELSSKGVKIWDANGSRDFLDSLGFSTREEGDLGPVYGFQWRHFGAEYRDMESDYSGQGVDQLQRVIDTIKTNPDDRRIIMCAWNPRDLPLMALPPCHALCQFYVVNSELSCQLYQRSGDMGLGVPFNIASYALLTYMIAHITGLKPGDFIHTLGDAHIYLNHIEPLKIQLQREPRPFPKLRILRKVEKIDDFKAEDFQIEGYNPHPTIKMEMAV
REPORTED_ENDPOINT: pKi
pKi is a log-scale quantity: -log10 of the concentration expressed in molar.

Q: API: value(readout=pKi, system=Thymidylate synthase (Homo sapiens, UniProt P04818)) for record CNC1=Nc2ccc(N(C)Cc3ccc(S(=O)(=O)N4CCOCC4)cc3)c3c(C)ccc1c23
A: 8.70

---

Below: a set of entries, each annotated with reported solubility.
- EXPERIMENTAL_DETAILS: Compound was evaluated for the solubility at the pH 7.4
- Format: ADME
- STUDY_CONDITIONS: buffer
The reply should contain only the number, in µM.

Before answering, review these 4 worked examples.
{"INPUT_SMILES": "CC(C)[C@H](NC(=O)N(C)Cc1ccccn1)C(=O)N[C@@H](Cc1ccccc1)[C@H](O)[C@@H](O)[C@H](Cc1ccccc1)NC(=O)[C@@H](NC(=O)N(C)Cc1ccccn1)C(C)C", "solubility (µM)": 292}
{"INPUT_SMILES": "CC(C)[C@H](NC(=O)OCc1ccccn1)C(=O)N[C@@H](Cc1ccccc1)[C@H](O)[C@H](O)[C@H](Cc1ccccc1)NC(=O)[C@@H](NC(=O)OCc1ccccn1)C(C)C", "solubility (µM)": 3.1}
{"INPUT_SMILES": "CC(C)[C@H](NC(=O)OCc1ccccn1)C(=O)N[C@@H](Cc1ccccc1)[C@@H](O)[C@H](O)[C@H](Cc1ccccc1)NC(=O)[C@@H](NC(=O)OCc1ccccn1)C(C)C", "solubility (µM)": 0.27}
{"INPUT_SMILES": "CC(C)[C@H](NC(=O)N(C)Cc1ccccn1)C(=O)N[C@@H](Cc1ccccc1)[C@@H](O)[C@H](O)[C@H](Cc1ccccc1)NC(=O)[C@@H](NC(=O)N(C)Cc1ccccn1)C(C)C", "solubility (µM)": 4.7}

Turning to the following compound.
Q: Tell me the measured solubility of CC(C)[C@H](NC(=O)N(C)Cc1ccccn1)C(=O)N[C@@H](Cc1ccccc1)[C@H](O)[C@H](O)[C@H](Cc1ccccc1)NC(=O)[C@@H](NC(=O)N(C)Cc1ccccn1)C(C)C , please.
A: 256

---

Let's go through some recorded IC50 values for UniProtKB Q72874 together.

Before answering, review these 5 worked examples.
{"COMPOUND": "N[C@@H](Cc1ccccc1)C(O)[C@@H](N)Cc1ccccc1", "REPORTED_ENDPOINT": "IC50", "READING": "> 10000 nM"}
{"COMPOUND": "CC(C)[C@H](NC(=O)OCc1ccccc1)C(=O)N[C@@H](Cc1ccccc1)[C@H](O)[C@H](O)[C@H](Cc1ccccc1)NC(=O)[C@@H](NC(=O)OCc1ccccc1)C(C)C", "REPORTED_ENDPOINT": "IC50", "READING": "0.22 nM"}
{"COMPOUND": "CC(C)[C@H](N)C(=O)N[C@@H](Cc1ccccc1)C(O)[C@H](Cc1ccccc1)NC(=O)[C@@H](N)C(C)C", "REPORTED_ENDPOINT": "IC50", "READING": "590 nM"}
{"COMPOUND": "CC(C)(C)OC(=O)N[C@@H](Cc1ccccc1)[C@H](O)[C@@H](O)[C@H](Cc1ccccc1)NC(=O)OC(C)(C)C", "REPORTED_ENDPOINT": "IC50", "READING": "40 nM"}
{"COMPOUND": "CC(C)(C)OC(=O)N[C@@H](Cc1ccccc1)[C@@H](O)[C@H](O)[C@H](Cc1ccccc1)NC(=O)OC(C)(C)C", "REPORTED_ENDPOINT": "IC50", "READING": "280 nM"}

Q: Tell me the measured IC50 of CC(C)[C@H](NC(=O)OCc1ccccc1)C(=O)N[C@@H](Cc1ccccc1)C(O)C(O)[C@H](Cc1ccccc1)NC(=O)[C@@H](NC(=O)OCc1ccccc1)C(C)C (single isomer, unassigned; 11) , please.
A: 0.22 nM

Q: Tell me the measured IC50 of CC(C)[C@H](NC(=O)OCc1ccccc1)C(=O)N[C@@H](Cc1ccccc1)C(O)C(O)[C@H](Cc1ccccc1)NC(=O)[C@@H](NC(=O)OCc1ccccc1)C(C)C (single isomer, unassigned; 13) , please.
A: 0.38 nM

Q: Tell me the measured IC50 of CC(C)(C)OC(=O)N[C@@H](Cc1ccccc1)C(O)[C@H](Cc1ccccc1)NC(=O)OC(C)(C)C , please.
A: 3000 nM

Q: Tell me the measured IC50 of CC(=O)N[C@H](C(=O)N[C@H](C(=O)N[C@@H](Cc1ccccc1)C(O)[C@H](Cc1ccccc1)NC(=O)[C@@H](NC(=O)[C@@H](NC(C)=O)C(C)C)C(C)C)C(C)C)C(C)C , please.
A: 10 nM

Q: Tell me the measured IC50 of CC(=O)N[C@@H](Cc1ccccc1)C(O)[C@H](Cc1ccccc1)NC(C)=O , please.
A: > 10000 nM
